System: Leucine Dehydrogenase (LeuDH) from B. cereus containing a SUMO-protein domain
Assay type: biochemical, Bacillus cereus
MEASUREMENT_PARAMETERS: L-amino acid 1 mM; 15 minutes at 37° C.; 100 mM Tris-HCl pH7.5; MTT reduction
METRIC: A 600 nm (absorbance values for L-amino acids)
Would you mind answering with just the numeric figure?

Please review the entries below; each comes with its answer.
O=C(O)[C@@H]1CCCN1 :: 0.008
C[C@H](N)C(=O)O :: 0.002
N[C@@H](Cc1ccccc1)C(=O)O :: 0.002
N[C@@H](Cc1ccc(O)cc1)C(=O)O :: 0.002
N[C@@H](CCC(=O)O)C(=O)O [GLU, L-Glutamate] :: 0.002
CC(C)[C@H](N)C(=O)O :: 0.612
CC[C@H](C)[C@H](N)C(=O)O :: 0.601
NC(=O)CC[C@H](N)C(=O)O :: 0.001

// A 600 nm (absorbance values for L-amino acids) value for NCC(=O)O : 0.001

// A 600 nm (absorbance values for L-amino acids) value for NCCCC[C@H](N)C(=O)O : 0.001

// A 600 nm (absorbance values for L-amino acids) value for N[C@@H](CO)C(=O)O : 0.001

// A 600 nm (absorbance values for L-amino acids) value for C[C@@H](O)[C@H](N)C(=O)O : 0.002
